Target: UniProtKB P47820
Sequence (P47820 whole entry): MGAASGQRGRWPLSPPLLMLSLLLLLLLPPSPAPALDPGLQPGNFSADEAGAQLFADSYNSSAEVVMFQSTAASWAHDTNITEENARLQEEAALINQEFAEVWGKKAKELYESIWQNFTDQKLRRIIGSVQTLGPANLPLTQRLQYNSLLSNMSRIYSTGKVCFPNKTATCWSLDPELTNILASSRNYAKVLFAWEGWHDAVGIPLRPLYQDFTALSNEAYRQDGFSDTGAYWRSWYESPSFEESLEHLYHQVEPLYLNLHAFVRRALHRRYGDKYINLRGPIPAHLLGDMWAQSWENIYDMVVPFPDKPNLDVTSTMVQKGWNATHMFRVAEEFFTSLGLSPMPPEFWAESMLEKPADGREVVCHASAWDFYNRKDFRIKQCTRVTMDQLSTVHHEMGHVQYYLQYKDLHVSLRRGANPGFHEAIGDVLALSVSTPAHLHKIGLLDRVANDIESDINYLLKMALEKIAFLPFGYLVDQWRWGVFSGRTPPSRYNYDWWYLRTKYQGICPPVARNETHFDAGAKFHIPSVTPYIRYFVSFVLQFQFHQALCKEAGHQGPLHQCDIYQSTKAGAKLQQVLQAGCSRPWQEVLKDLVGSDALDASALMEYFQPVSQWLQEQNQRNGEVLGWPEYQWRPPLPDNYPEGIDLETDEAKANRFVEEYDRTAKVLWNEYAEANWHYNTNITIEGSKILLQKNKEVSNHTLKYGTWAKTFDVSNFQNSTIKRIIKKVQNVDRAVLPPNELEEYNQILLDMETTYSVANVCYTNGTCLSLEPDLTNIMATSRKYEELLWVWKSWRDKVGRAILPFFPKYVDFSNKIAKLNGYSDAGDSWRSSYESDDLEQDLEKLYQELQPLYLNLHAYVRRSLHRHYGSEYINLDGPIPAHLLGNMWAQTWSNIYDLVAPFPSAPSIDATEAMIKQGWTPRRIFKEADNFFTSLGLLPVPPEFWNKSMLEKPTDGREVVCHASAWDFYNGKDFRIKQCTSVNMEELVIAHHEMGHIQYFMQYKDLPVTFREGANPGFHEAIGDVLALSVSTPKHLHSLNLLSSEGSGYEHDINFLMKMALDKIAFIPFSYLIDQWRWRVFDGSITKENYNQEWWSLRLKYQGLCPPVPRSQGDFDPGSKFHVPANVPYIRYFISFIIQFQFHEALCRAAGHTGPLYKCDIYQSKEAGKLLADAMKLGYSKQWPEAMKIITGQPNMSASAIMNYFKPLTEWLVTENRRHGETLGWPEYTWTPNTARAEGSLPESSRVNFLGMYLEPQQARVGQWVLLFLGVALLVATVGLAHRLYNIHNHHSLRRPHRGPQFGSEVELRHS
IC50 reference
Write the number in nM without appending the unit.

Example cases with answers are listed next.
# COMPOUND, MEASURED_ENDPOINT, UNIT_STRING, NUMERIC_READOUT
rows = [
    ("CC(CSC(=O)c1ccccc1)C(=O)N1[C@H](C(=O)O)C[C@@H]2CCCC[C@@H]21 (stereo not given in full)", "IC50", "nM", 540),
    ("C[C@H](CS)C(=O)N1c2ccccc2C[C@H]1C(=O)O", "IC50", "nM", 3.7),
    ("O=C(NC(Cc1ccccc1)C(=O)CCC(=O)N1C(C(=O)O)CC2CCCCC21)c1ccccc1 (stereo not given)", "IC50", "nM", 11),
    ("CC(=O)SCCC(=O)N1[C@H](C(=O)O)C[C@@H]2CCCC[C@@H]21 (stereo in doubt; 8a)", "IC50", "nM", 560),
    ("CC(=O)SCC(C)C(=O)N1C(=O)C2CCCCC2C1C(=O)O (stereo not given)", "IC50", "nM", 300),
]

Q: Give the value of IC50 reported for the following: O=C(O)[C@@H]1CCCN1C(=O)CCS
Result: 820

Q: Give me measured IC50, please, for this compound: O=C(O)[C@@H]1C[C@@H]2CCCC[C@@H]2N1C(=O)CCS (stereo in doubt; 8b)
Result: 13

Q: Identify IC50 associated with the compound O=C(O)[C@@H]1C[C@@H]2CCCC[C@@H]2N1C(=O)CCS (stereo in doubt; 8d)
Result: 6.4

Q: Fill in reported IC50 for this entry: CC(=O)SCCC(=O)N1[C@H](C(=O)O)C[C@@H]2CCCC[C@@H]21 (stereo in doubt; 8c)
Result: 480

Q: Hello, please tell me recorded IC50 for this one: O=C(O)[C@@H]1CCC(=O)N1C(=O)CCS
Result: 960
